Origin of the recorded values: patent US8669249B2

pIC50: −log10 of the molar value.
Read-out record for PARP (Homo sapiens): pIC50
MEASURED_QUANTITY: pIC50

Below are worked cases with known answers.
INSERT INTO measurements (compound, observed_measurement) VALUES
  ('CC1Oc2cc(F)c(CN3CCN(c4ccc(C(=O)NC5CC5)cc4)CC3)cc2NC1=O (stereo not shown)', 7.10),
  ('CNC(=O)c1ccc(N2CCN(Cc3cc4c(c(OC)c3)OCC(=O)N4)CC2)c(C)c1', 7.80),
  ('CNC(=O)c1ccc(N2CCN(Cc3cc(C)c4c(c3)NC(=O)C(C)O4)CC2)c(C)c1 (stereo not shown)', 7.40),
  ('CCNC(=O)c1ccc(N2CCN(Cc3cc4c(c(OCC)c3)OC(C)C(=O)N4)CC2)c(Cl)c1 (stereo not shown)', 7.20),
  ('CCOC(=O)c1ccc(N2CCN(Cc3cc(Cl)c4c(c3)NC(=O)C(C)O4)CC2)cc1 (stereo not shown)', 7.10);

(a) CC(C)NC(=O)c1ccc(N2CCN(Cc3cc(F)c4c(c3)NC(=O)C(C)O4)CC2)nc1 (stereo not shown)
(b) CCNC(=O)c1ccc(N2CCN(Cc3cc4c(c(OCC)c3)OC(C)C(=O)N4)CC2)c(C)c1 (stereo not shown)
(c) CNC(=O)c1ccc(N2CCN(Cc3cc4c(c(OC)c3)OC(C)C(=O)N4)CC2)c(Cl)c1 (stereo not shown)
(d) CC1Oc2c(cc(CN3CCN(c4ccc(C(=O)NC5CC5)cc4)CC3)cc2C2CC2)NC1=O (stereo not shown)
Query string: Rank descending by pIC50. Lab note: record answer as labels in requested order.
Result string: c, b, a, d

* * *

TESTED_SYSTEM: catalytic domain of Human PARP (Homo sapiens)
Construct: The catalytic domain of Human PARP was cloned and prepared; made in house
Sequence (P09874 788-1014 limits assumed): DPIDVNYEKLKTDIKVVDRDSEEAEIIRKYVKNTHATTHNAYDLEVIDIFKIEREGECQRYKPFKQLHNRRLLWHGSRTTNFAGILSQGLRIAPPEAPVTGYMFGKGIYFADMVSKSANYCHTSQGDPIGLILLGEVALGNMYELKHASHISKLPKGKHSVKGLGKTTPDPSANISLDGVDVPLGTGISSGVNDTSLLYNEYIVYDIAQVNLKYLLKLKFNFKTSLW
EXPERIMENTAL_DETAILS: Biacore surface plasmon resonance affinity assay
Format: binding
RUN_CONDITIONS: pKD=-log10 KD, KD in mol/L; Biacore T100, 25° C.; read-out: pKD (converted)
Each entry below lists one item and its recorded Kd value.

Below are worked cases with known answers.
INSERT INTO assay_data (compound, observed_measurement) VALUES
  ('CC1Oc2ccc(CN(C)CC(=O)N3CCCCC3)cc2NC1=O (centres unmarked)', '12.6 to 79.4 µM'),
  ('CCC1Oc2ccc(CN3CCN(c4ccncc4)CC3)cc2NC1=O (centres unmarked)', '≥ 100 µM'),
  ('CNC(=O)c1ccc(-c2ccc3c(c2)NC(=O)C(C)O3)cc1 (centres unmarked)', '> 10 µM'),
  ('CNC(=O)OCCCc1ccc2c(c1)NC(=O)C(C)O2 (centres unmarked)', '> 10 µM'),
  ('COc1cc(CN2CC=C(c3ccccc3)CC2)cc2c1OC(C)C(=O)N2 (centres unmarked)', '0.0126 to 0.1 µM'),
  ('CC1Oc2ccc(CN3CCN(CC(=O)NCC4CC4)CC3)cc2NC1=O (centres unmarked)', '> 10 µM'),
  ('CC1Oc2cc(CN(C)Cc3ccccc3)ccc2NC1=O (centres unmarked)', '12.6 to 79.4 µM'),
  ('CCOC(=O)c1ccc(N2CCN(Cc3ccc4c(c3)NC(=O)C(C)O4)CC2)cc1 (centres unmarked)', '≤ 0.01 µM'),
  ('CC1Oc2ccc(-c3ccc(C(=O)NC4CCCCC4)cc3)cc2NC1=O (centres unmarked)', '> 10 µM'),
  ('CC1Oc2cc(CN3CC=C(c4ccc(Cl)cc4)CC3)ccc2NC1=O (centres unmarked)', '≥ 100 µM');

Recorded result, O=C1COc2ccc(C(=O)NC3CCCCC3)cc2N1 , Kd: ≥ 100 µM

Recorded result, O=C1Nc2cc(CN3CC=C(c4ccc(F)cc4)CC3)ccc2OC1F (centres unmarked) , Kd: ≤ 0.01 µM

Recorded result, CC1Oc2ccc(CN3CCN(CC(=O)O)CC3)cc2NC1=O (centres unmarked) , Kd: ≥ 100 µM

Recorded result, CC1Oc2ccc(CN3CC=C(c4ccc(F)cc4)CC3)cc2NC1=O (centres unmarked) , Kd: 0.0126 to 0.1 µM
